Target: PDE4B (human recombinant) (Homo sapiens, UniProt Q07343)
Construct: made in house; host or cells: Saccharomyces cerevisiae strain GL62 (PDE-deficient)
Sequence (Q07343 1-564 isoform Q07343-2): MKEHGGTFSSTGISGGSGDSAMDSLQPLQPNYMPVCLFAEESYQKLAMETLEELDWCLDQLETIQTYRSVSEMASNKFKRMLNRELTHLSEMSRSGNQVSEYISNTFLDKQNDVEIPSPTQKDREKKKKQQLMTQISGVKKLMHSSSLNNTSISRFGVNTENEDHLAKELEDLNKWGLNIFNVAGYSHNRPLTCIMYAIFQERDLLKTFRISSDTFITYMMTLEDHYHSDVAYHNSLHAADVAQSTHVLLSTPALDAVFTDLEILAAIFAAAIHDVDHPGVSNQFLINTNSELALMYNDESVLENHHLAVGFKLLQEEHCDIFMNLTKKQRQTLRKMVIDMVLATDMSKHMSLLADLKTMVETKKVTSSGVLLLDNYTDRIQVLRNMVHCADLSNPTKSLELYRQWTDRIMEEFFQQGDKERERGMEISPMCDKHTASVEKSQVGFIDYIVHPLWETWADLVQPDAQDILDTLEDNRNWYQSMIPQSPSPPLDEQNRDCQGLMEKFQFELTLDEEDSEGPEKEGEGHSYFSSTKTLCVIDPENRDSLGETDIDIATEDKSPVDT
Experiment: PDE4B inhibition, radioactive SPA or IMAP fluorescence polarisation (FP) assay
Assay type: biochemical
Settings: one reading or average of ca. 2-6 readings, accurate only to about ±0.5 log unit, read-out: PDE4B pIC50 (±about 0.5) (converted)
Text: Human recombinant PDE4B, in particular the 2B splice variant thereof (HSPDE4B2B), is disclosed in WO 94/20079 and also M. M. McLaughlin et al., “A low Km, rolipram-sensitive, cAMP-specific phosphodiesterase from human brain: cloning and expression of cDNA, biochemical characterisation of recombinant protein, and tissue distribution of mRNA”, J. Biol. Chem., 1993, 268, 6470-6476. Human recombinant PDE4B was expressed in the PDE-deficient yeast Saccharomyces cerevisiae strain GL62. […]
For each record, write down the corresponding IC50.
Field: numeric (nM). Do not append units.

Please fill in: IC50 reported for `CCn1ncc2c(NC3CCOCC3)c(-c3nnc(C)o3)cnc21` = 25.1

Reported IC50 ( CCn1ncc2c(NC3CCOCC3)c(C3=NC(C)CO3)cnc21 (stereo not shown) ) = 5.01

Data point: `CCn1ncc2c(NC3CCOCC3)c(-c3nnc(CS(C)(=O)=O)o3)cnc21` ; IC50 = 7.94
